All values here come from ChEMBL document CHEMBL4414581.

# System: SW480
# Procedure summary: Cytotoxicity against human SW480 cells assessed as reduction in cell viability measured after 48 hrs by MTS assay
# Assay type: functional, cell-based
# Condition context: SW480, 48 h
Readout kind: IC50

Give IC50; test system SW480; compound C[C@]12[C@H](C[C@H](O)[C@]3(C)OC(=O)[C@H](O)[C@]13O)O[C@H]1[C@H]2[C@@](C)(O)[C@@]23O[C@@H]2C[C@@H](c2ccoc2)[C@]3(C)[C@H]1O
> 10 µM

Give IC50; test system SW480; compound CC1(C)C(=O)C=C[C@]2(C)C3=CC[C@@]4(C)[C@H](C5=CCNC5=O)C[C@H]5O[C@]54[C@]3(C)C(=O)C[C@@H]12
> 10 µM

Give IC50; test system SW480; compound C[C@]12[C@H](c3ccoc3)C[C@H]3O[C@]31[C@](C)(O)[C@@H]1[C@H](O[C@@]3(O)C=C[C@]4(C)OC(=O)[C@H](O)[C@]4(O)[C@@]13C)[C@@H]2O
> 10 µM

###

# Tested on: HL-60
# Procedure summary: Cytotoxicity against human HL60 cells assessed as reduction in cell viability measured after 48 hrs by MTS assay
# Format: functional, cell-based
# Condition context: HL-60, 48 h
pIC50: −log10 of the molar value.
Readout kind: pIC50

Give pIC50; test system HL-60; molecule CC(=O)O[C@H]1[C@H]2O[C@H]3C[C@@H](O)[C@]4(C)OC(=O)[C@H](O)[C@]4(O)[C@@]3(C)[C@@H]2[C@@](C)(O)[C@@]23O[C@@H]2C[C@@H](c2ccoc2)[C@]13C
5.80

Give pIC50; test system HL-60; molecule CC(=O)O[C@@H]1C[C@]2(C)[C@@H](C(=O)C[C@H]2c2ccoc2)[C@]2(C)[C@H](O)C[C@H]3C(C)(C)OC(=O)C=C[C@]3(C)[C@@H]12
< 5.00

Give pIC50; test system HL-60; molecule CO[C@]12C=C[C@]3(C)OC(=O)[C@H](O)[C@]3(O)[C@@]1(C)[C@H]1[C@@H](C[C@@]3(C)[C@H](c4ccoc4)C[C@H]4O[C@]43[C@]1(C)O)O2
< 5.00

Give pIC50; test system HL-60; molecule C[C@]12[C@H]3[C@@H](C[C@@]4(C)[C@H](c5ccoc5)C[C@H]5O[C@]54[C@]3(C)O)O[C@@]1(O)C=C[C@]1(C)OC(=O)[C@H](O)[C@]21O
5.64

Give pIC50; test system HL-60; molecule CC1(C)OC(=O)C=C[C@]2(C)[C@H]3CC[C@]4(C)[C@@H](C(=O)C[C@H]4c4ccoc4)[C@]3(C)[C@H](O)C[C@@H]12
< 5.00

Give pIC50; test system HL-60; molecule C[C@]12[C@H](C[C@H](O)[C@]3(C)OC(=O)[C@H](O)[C@]13O)O[C@@H]1C[C@@]3(C)[C@H](c4ccoc4)C[C@H]4O[C@]43[C@](C)(O)[C@H]12
< 5.00
